Recorded solubility values for a group of compounds are listed next.
assay.text: physchem

{"compound": "O=C(Cc1ccccc1)N(CCCN1CCC(O)(c2ccc(Cl)cc2)CC1)Cc1ccccc1", "solubility": "< 250 µM"}
{"compound": "O=C(CCC[N+]1(CCc2ccccc2)CCC(O)(c2ccc(Cl)cc2)CC1)c1ccc(F)cc1 (centres unmarked)", "solubility": "> 250 µM"}
{"compound": "O=C(C=C(CN1CCC(O)(c2ccc(Cl)cc2)CC1)SCCO)c1ccccc1", "solubility": "150 µM"}
{"compound": "C#CCC(CCN1CCC(O)(c2ccc(Cl)cc2)CC1)C(=O)c1ccc(F)cc1 (centres unmarked)", "solubility": "< 500 µM"}
{"compound": "O=C(CCCN1CCC(O)(c2ccc(Cl)cc2)CC1)c1ccccc1-c1ccccc1", "solubility": "< 250 µM"}
{"compound": "O=C(CCCN1CCC(CO)(c2ccccc2)CC1)c1ccc(F)cc1", "solubility": "> 500 µM"}
{"compound": "O=C(C#CCN1CCC(O)(c2ccc(Cl)cc2)CC1)c1ccccc1", "solubility": "> 60 µM"}
{"compound": "OC1(c2ccccc2)CCN(CCCC2(c3ccccc3)OCCO2)CC1", "solubility": "> 250 µM"}
{"compound": "O=C(CCCN1CCC(O)(c2ccccc2)CC1)c1ccc2ccccc2n1", "solubility": "< 200 µM"}
{"compound": "OC1(c2ccc(Cl)cc2)CCN(CCCC(O)(c2ccccc2)c2ccccc2-c2ccccc2)CC1 (centres unmarked)", "solubility": "< 500 µM"}
{"compound": "OC1(c2ccc(Cl)cc2)CCN(CCCC2(c3ccc(F)cc3)SCc3cccc(c3)CS2)CC1", "solubility": "< 250 µM"}

---

assay.text: in vitro
The reader will find reported CC50 at 6 h values listed item by item below.

{"molecule": "O=C(CCCN1CCC(O)(c2ccc(Cl)cc2)CC1)c1ccncc1", "readout.qualifier": ">", "CC50 at 6 h / µM": 500}
{"molecule": "CC(CCN1CCC(O)(c2ccc(Cl)cc2)CC1)C(=O)c1ccc(F)cc1 (centres unmarked)", "readout.qualifier": "=", "CC50 at 6 h / µM": 90}
{"molecule": "O=C(/C=C/CN1CCC(O)(c2ccc(Cl)cc2)CC1)c1ccc(F)cc1", "readout.qualifier": "=", "CC50 at 6 h / µM": 22}
{"molecule": "O=C(CCCN1CC=C(c2ccc(Cl)cc2)CC1)c1ccc(F)cc1", "readout.qualifier": "=", "CC50 at 6 h / µM": 250}

---

system.name: HIV-1 protease (Human immunodeficiency virus type 1 group M subtype B, UniProt P03369)
assay.text: biochemical
test.context: 0.5M NaCl; read-out: IC50
pIC50: −log10 of the molar value.
measurement.type: pIC50

{"compound": "OC1(CCCCc2ccccc2)CCC(O)(c2ccccc2)CC1 (stereo not shown) [UCSF29]", "system.name": "HIV-1 protease (Human immunodeficiency virus type 1 group M subtype B, UniProt P03369)", "measurement.type": "pIC50", "assay.value": 3.20}

---

system.name: HIV-2 protease (Human immunodeficiency virus type 2 subtype A, UniProt P04584)
Construct: the coding region of the 99-amino acid protease; made in house; host or cells: Saccharomyces cerevisiae strain AB110, plasmid pHIV2PR115
Sequence (P04584 514-612 limits assumed): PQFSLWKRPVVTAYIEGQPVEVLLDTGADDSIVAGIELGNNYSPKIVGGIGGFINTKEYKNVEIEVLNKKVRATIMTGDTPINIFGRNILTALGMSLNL
assay.text: biochemical
test.context: 1M NaCl
pIC50: −log10 of the molar value.

{"molecule": "C[C@@H]1SC(CCCN2CCC(O)(c3ccc(Cl)cc3)CC2)(c2ccc(F)cc2)S[C@@H]1C (relative stereo)", "pIC50": 4.54}
{"molecule": "OC1(c2ccc(Cl)cc2)CCN(CCCN(Cc2ccccc2)Cc2ccc(-c3ccccc3)cc2)CC1", "pIC50": 4.82}
{"molecule": "ON=C(CCCN1CCC(O)(c2ccc(Cl)cc2)CC1)c1ccc(F)cc1", "pIC50": 3.94}
{"molecule": "CSCC(O)(CCCN1CCC(O)(c2ccc(Cl)cc2)CC1)c1ccc(F)cc1 (stereo not drawn)", "pIC50": 3.87}
{"molecule": "CC(CCc1ccccc1)N1CCC(O)(c2ccc(Cl)cc2)CC1 (stereo not drawn)", "pIC50": 3.73}
{"molecule": "OC1(c2ccc(Cl)cc2)CCN(CCCC2(c3ccc(F)cc3)OCCS2)CC1 (stereo not drawn)", "pIC50": 3.78}
{"molecule": "C=CC(O)(CCCN1CCC(O)(c2ccc(Cl)cc2)CC1)c1ccc(F)cc1 (stereo not drawn)", "pIC50": 3.70}
{"molecule": "CC[C@@H]1CSC(CCCN2CCC(O)(c3ccc(Cl)cc3)CC2)(c2ccc(F)cc2)O1 (stereo partly drawn)", "pIC50": 4.17}
{"molecule": "CC(CCN1CCC(O)(c2ccc(Cl)cc2)CC1)C(=O)c1ccc(F)cc1 (stereo not drawn)", "pIC50": 3.90}

---

Below, each of the compounds is paired with its reported HIV-1 Protease Therapeutic Index (LD50 /IC50) value.
system.name: HIV-1 protease (Human immunodeficiency virus type 1 group M subtype B)
assay.text: biochemical
test.context: LD50/IC50
measurement.type: HIV-1 Protease Therapeutic Index (LD50 /IC50)

{"compound": "OC1(CCCCc2ccccc2)CCC(O)(c2ccc(Cl)cc2)CC1 (stereo not shown) [UCSF54]", "system.name": "HIV-1 protease (Human immunodeficiency virus type 1 group M subtype B)", "readout.qualifier": "<", "assay.value": 0.08}
{"compound": "O=C(c1ccc(N2CCC(O)(c3ccc(Cl)cc3)CC2)cc1)C1CC1 [UCSF81]", "system.name": "HIV-1 protease (Human immunodeficiency virus type 1 group M subtype B)", "readout.qualifier": ">", "assay.value": 1.25}
{"compound": "CC(=O)OC1(c2ccc(Cl)cc2)CCN(CCCC(=O)c2ccc(F)cc2)CC1 [UCSF6]", "system.name": "HIV-1 protease (Human immunodeficiency virus type 1 group M subtype B)", "readout.qualifier": "=", "assay.value": 0.3}
{"compound": "C=C(CCCC1(O)CCC(O)(c2ccc(Cl)cc2)CC1)c1ccccc1 (stereo not shown) [UCSF41]", "system.name": "HIV-1 protease (Human immunodeficiency virus type 1 group M subtype B)", "readout.qualifier": "=", "assay.value": 0.6}
{"compound": "O=C(CCC[n+]1ccc(-c2ccc(Cl)cc2)cc1)c1ccc(F)cc1 [UCSF17]", "system.name": "HIV-1 protease (Human immunodeficiency virus type 1 group M subtype B)", "readout.qualifier": "=", "assay.value": 0.4}
{"compound": "O=C(CCCN1CC=C(c2ccc(Cl)cc2)CC1)c1ccc(F)cc1 [UCSF11]", "system.name": "HIV-1 protease (Human immunodeficiency virus type 1 group M subtype B)", "readout.qualifier": "=", "assay.value": 0.3}
{"compound": "OC1(CCCCc2ccccc2)CCC(O)(c2ccccc2)CC1 (stereo not shown) [UCSF29]", "system.name": "HIV-1 protease (Human immunodeficiency virus type 1 group M subtype B)", "readout.qualifier": "=", "assay.value": 1.2}

---

Readings of CC50 at 4 h for the listed compounds
assay.text: in vitro
test.context: african green monkey, cos-7 cells
measurement.type: CC50 at 4 h (µM)

{"compound": "OC1(c2ccc(Cl)cc2)CCN(CC#CC2(c3ccccc3)CO2)CC1 (stereo not drawn) [UCSF84]", "measurement.type": "CC50 at 4 h", "readout.qualifier": "=", "assay.value": 120}
{"compound": "O=C(C#CCN1CCC(O)(c2ccc(Cl)cc2)CC1)c1cccc(-c2ccccc2)c1 [UCSF142]", "measurement.type": "CC50 at 4 h", "readout.qualifier": "=", "assay.value": 35}
{"compound": "OC1(CCCCc2ccccc2)CCC(O)(c2ccccc2)CC1 (stereo not drawn) [UCSF29]", "measurement.type": "CC50 at 4 h", "readout.qualifier": "=", "assay.value": 180}
{"compound": "O=C(C#CCN1CCC(O)(c2ccc(Cl)cc2)CC1)c1ccc(-c2ccccc2)cc1 [UCSF231]", "measurement.type": "CC50 at 4 h", "readout.qualifier": "<", "assay.value": 5}
{"compound": "C/C=C/C/C=C/CCC(=O)[C@H]1O[C@H]1C(N)=O [cerulenin, reference compound]", "measurement.type": "CC50 at 4 h", "readout.qualifier": "=", "assay.value": 900}
{"compound": "O=C(C=C(CN1CCC(O)(c2ccc(Cl)cc2)CC1)SCCO)c1ccccc1 [UCSF178]", "measurement.type": "CC50 at 4 h", "readout.qualifier": ">", "assay.value": 250}

---

system.name: HIV-1 protease (Human immunodeficiency virus type 1 group M subtype B)
assay.text: biochemical
test.context: HIV-1 Protease IC50 (μM) 1M NaCl

{"compound": "NN=C(CCCN1CCC(O)(c2ccc(Cl)cc2)CC1)c1ccc(F)cc1 [UCSF7]", "system.name": "HIV-1 protease (Human immunodeficiency virus type 1 group M subtype B)", "value.unit": "µM", "IC50": 100}
{"compound": "C=CC(O)(CCCN1CCC(O)(c2ccc(Cl)cc2)CC1)c1ccc(F)cc1 (stereo not drawn) [UCSF40]", "system.name": "HIV-1 protease (Human immunodeficiency virus type 1 group M subtype B)", "value.unit": "µM", "IC50": 80}
{"compound": "COCCN(CCN1CCC(O)(c2ccc(Cl)cc2)CC1)Cc1ccccc1 [UCSF58]", "system.name": "HIV-1 protease (Human immunodeficiency virus type 1 group M subtype B)", "value.unit": "µM", "IC50": 300}
{"compound": "O=C(CCCN1CCC(O)(c2ccccc2)CC1)c1ccccc1 [UCSF34]", "system.name": "HIV-1 protease (Human immunodeficiency virus type 1 group M subtype B)", "value.unit": "µM", "IC50": 400}
{"compound": "O=C(CCC[N+]1(CCc2ccccc2)CCC(O)(c2ccc(Cl)cc2)CC1)c1ccc(F)cc1 (stereo not drawn) [UCSF15]", "system.name": "HIV-1 protease (Human immunodeficiency virus type 1 group M subtype B)", "value.unit": "µM", "IC50": 150}
{"compound": "O=C(CCC[N+]1([O-])CCC(O)(c2ccc(Cl)cc2)CC1)c1ccc(F)cc1 (stereo not drawn) [UCSF3]", "system.name": "HIV-1 protease (Human immunodeficiency virus type 1 group M subtype B)", "value.unit": "µM", "IC50": 100}
{"compound": "C[C@@H]1SC(CCCN2CCC(O)(c3ccc(Cl)cc3)CC2)(c2ccc(F)cc2)S[C@@H]1C (relative stereo) [UCSF64]", "system.name": "HIV-1 protease (Human immunodeficiency virus type 1 group M subtype B)", "value.unit": "µM", "IC50": 16}
{"compound": "OC1(c2ccc(Cl)cc2)CCN(CCCC2(c3cccc(-c4ccccc4)c3)SCCS2)CC1 [UCSF59]", "system.name": "HIV-1 protease (Human immunodeficiency virus type 1 group M subtype B)", "value.unit": "µM", "IC50": 8}
{"compound": "Cc1ccc(C(=O)CCC(c2ccccc2)N2CCC(O)(c3ccc(Cl)cc3)CC2)cc1 (stereo not drawn) [UCSF44]", "system.name": "HIV-1 protease (Human immunodeficiency virus type 1 group M subtype B)", "value.unit": "µM", "IC50": 35}
